Ref: patent US6602888B2

Answer each item with its documented Ki.
# assaySystem: human D2 receptor (Homo sapiens, UniProt P14416)
# Construct: host or cells: COS-7, transient, DEAE-dextran
# Sequence (P14416 whole entry): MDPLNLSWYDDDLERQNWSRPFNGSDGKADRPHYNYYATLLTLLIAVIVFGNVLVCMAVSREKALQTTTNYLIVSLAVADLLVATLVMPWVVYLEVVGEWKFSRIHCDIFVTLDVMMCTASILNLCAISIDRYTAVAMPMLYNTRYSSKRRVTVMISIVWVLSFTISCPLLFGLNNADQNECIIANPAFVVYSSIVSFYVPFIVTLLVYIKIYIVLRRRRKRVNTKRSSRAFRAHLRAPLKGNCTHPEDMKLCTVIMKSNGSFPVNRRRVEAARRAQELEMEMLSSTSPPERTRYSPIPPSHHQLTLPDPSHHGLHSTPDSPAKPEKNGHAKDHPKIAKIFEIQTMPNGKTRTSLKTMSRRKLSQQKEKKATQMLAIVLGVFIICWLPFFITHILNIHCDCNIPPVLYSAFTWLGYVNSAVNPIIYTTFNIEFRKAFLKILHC
# method: [3H]spiperone binding, dopamine D2 receptor
# conditionSet: Table 2, cloned human receptor; read-out: Dopamine D2 (pK1)
Where a name gives a salt, the structure may show the parent alone.

Provide value of Ki for this record tested with human D2 receptor (Homo sapiens, UniProt P14416): O=C(NC1CCN(CCc2c[nH]c3ccccc23)CC1)c1ccccc1 [Indoramin, reference compound]
> 10 nM

What about this compound? COc1cc2nc(N3CCN(C(=O)C4CCCO4)CC3)nc(N)c2cc1OC (centres unmarked) [Terazosin, hydrochloride, reference compound]
> 10000 nM

What about this compound? COC(=O)C1=C(C)NC(C)=C(C(=O)OCCCN2CCC(c3ccccc3)(c3ccccc3)CC2)C1c1ccc([N+](=O)[O-])cc1.Cl (centres unmarked) [Compound 8, hydrochloride]
> 1000 nM

What about this compound? COc1ccc(CCNCC2CCc3ccccc3C2)cc1 (centres unmarked)
> 1000 nM

What about this compound? C=Cc1sc2ccc(Cl)c3c2c1CN(C)CC3 [SKF-104856, reference compound]
> 100 nM

###

# assaySystem: human 5HT2 receptor (Homo sapiens, UniProt P28223)
# Construct: host or cells: COS-7 (DEAE-dextran); the same paragraph also names a deposited line L-NGC-5HT2
# Sequence (P28223 whole entry): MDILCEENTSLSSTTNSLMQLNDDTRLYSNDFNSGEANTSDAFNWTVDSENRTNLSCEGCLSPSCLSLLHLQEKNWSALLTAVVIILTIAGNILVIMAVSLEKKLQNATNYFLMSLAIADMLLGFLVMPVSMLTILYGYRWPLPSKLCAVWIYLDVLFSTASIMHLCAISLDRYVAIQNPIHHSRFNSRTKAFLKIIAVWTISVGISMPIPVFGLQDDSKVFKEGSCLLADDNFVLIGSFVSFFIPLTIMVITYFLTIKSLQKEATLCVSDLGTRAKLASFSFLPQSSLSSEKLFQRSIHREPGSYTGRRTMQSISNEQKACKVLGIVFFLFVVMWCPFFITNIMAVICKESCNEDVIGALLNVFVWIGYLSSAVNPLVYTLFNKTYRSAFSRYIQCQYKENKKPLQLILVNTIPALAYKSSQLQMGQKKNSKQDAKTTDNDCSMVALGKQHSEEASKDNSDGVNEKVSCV
# method: [3H]ketanserin competition binding, 5HT2 receptor
# conditionSet: Table 2, cloned human receptor; read-out: Serotonin 5HT2 (pK1)
pKi: −log10 of the molar value.
Answer each item with its documented pKi.

I have this molecule here, C=Cc1sc2ccc(Cl)c3c2c1CN(C)CC3 [SKF-104856, reference compound] , and I need its recorded pKi.
< 6.00

What about this molecule? COc1ccc(CCNCC2CCc3ccccc3C2)cc1 (stereo not shown)
< 7.00

What about this molecule? COC(=O)C1=C(C)NC(C)=C(C(=O)OCCCN2CCC(c3ccccc3)(c3ccccc3)CC2)C1c1ccc([N+](=O)[O-])cc1.Cl (stereo not shown) [Compound 8, hydrochloride]
< 7.00

What about this molecule? O=C(NC1CCN(CCc2c[nH]c3ccccc23)CC1)c1ccccc1 [Indoramin, reference compound]
< 7.00

###

# assaySystem: human α1C adrenergic receptor (Homo sapiens, UniProt P35348)
# Construct: The entire coding region of α1C (1401 bp); expressed in transfected cells
# Sequence (P35348 whole entry): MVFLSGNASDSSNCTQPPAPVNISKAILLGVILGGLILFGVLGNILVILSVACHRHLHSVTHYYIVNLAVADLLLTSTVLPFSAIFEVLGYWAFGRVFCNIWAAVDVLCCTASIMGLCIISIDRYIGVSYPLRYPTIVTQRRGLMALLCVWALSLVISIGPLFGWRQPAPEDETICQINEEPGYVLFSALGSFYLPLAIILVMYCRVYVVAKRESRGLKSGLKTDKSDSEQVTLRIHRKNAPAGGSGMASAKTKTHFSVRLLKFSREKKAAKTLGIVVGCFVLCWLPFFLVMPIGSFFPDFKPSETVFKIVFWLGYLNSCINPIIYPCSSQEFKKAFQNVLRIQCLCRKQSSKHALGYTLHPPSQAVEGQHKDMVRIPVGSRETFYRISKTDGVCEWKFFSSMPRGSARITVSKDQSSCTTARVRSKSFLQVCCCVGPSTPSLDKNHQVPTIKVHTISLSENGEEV
# method: Radioligand binding, [3H]prazosin, cloned human α1C adrenergic receptor
# conditionSet: Table 2, cloned human receptor
Label rule, in plain words: Alpha-1 Adrenergic a1C (pK1) of 8 and up is Y, under 8 is N.

Hi, just wondering whether O=C(CCCN1CCC(NC(=O)c2ccccc2)CC1)c1ccc(Cl)cc1 shows Alpha-1 Adrenergic a1C (pK1) of 8 or higher.
Y

What about this compound? COc1ccccc1N1CCN(CCCNc2c(C)c(=O)n(C)c(=O)n2C)CC1 [5-Methyl-Urapidil, 5-methylurapidil, reference compound]
Y

What about this compound? C=Cc1sc2ccc(Cl)c3c2c1CN(C)CC3 [SKF-104856, reference compound]
N

What about this compound? COc1ccc(CCNCC2CCc3ccccc3C2)cc1 (centres unmarked)
Y

###

# assaySystem: human α1A adrenergic receptor (Homo sapiens, UniProt P25100)
# Sequence (P25100 1-572): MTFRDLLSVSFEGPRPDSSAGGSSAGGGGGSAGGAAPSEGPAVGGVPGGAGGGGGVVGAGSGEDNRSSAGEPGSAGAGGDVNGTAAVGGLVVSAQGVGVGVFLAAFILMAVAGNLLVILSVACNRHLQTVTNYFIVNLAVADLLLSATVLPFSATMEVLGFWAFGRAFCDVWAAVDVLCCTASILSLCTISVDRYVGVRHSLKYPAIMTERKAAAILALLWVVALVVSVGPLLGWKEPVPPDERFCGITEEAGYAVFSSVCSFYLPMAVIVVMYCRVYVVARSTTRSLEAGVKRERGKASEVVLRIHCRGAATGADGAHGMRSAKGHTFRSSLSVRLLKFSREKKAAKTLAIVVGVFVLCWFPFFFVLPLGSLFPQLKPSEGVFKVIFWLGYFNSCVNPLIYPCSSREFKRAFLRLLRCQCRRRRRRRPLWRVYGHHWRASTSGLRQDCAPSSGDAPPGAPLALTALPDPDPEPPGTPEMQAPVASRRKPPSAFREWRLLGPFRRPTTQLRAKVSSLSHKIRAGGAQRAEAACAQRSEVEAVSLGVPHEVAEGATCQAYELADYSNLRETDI
# method: Radioligand binding, [3H]prazosin, cloned human α1A adrenergic receptor
# conditionSet: Table 2, cloned human receptor
So basically, if Alpha-1 Adrenergic a1A (pK1) comes in under 7 it's 1, and if it's 7 or more it's -1.

Record O=C(CCCN1CCC(NC(=O)c2ccccc2)CC1)c1ccccc1 [Compound 9] : is its Alpha-1 Adrenergic a1A (pK1) strictly below 7?
1

What about this compound? COC(=O)C1=C(C)NC(C)=C(C(=O)OCCCN2CCC(c3ccccc3)(c3ccccc3)CC2)C1c1ccc([N+](=O)[O-])cc1.Cl (centres unmarked) [Compound 8]
1

What about this compound? COc1ccccc1N1CCN(CCCNc2c(C)c(=O)n(C)c(=O)n2C)CC1 [5-Methyl-Urapidil, 5-methylurapidil, reference compound]
-1
